biological target: human LCE (Homo sapiens, UniProt Q9H5J4); test: LCE enzyme activity inhibition test; type: biochemical; details: human LCE; [14C]-malonyl-CoA and palmitoyl-CoA substrate; 37° C. for 90 minutes; pH 6.5; read-out: IC50
Sequence (Q9H5J4 whole entry): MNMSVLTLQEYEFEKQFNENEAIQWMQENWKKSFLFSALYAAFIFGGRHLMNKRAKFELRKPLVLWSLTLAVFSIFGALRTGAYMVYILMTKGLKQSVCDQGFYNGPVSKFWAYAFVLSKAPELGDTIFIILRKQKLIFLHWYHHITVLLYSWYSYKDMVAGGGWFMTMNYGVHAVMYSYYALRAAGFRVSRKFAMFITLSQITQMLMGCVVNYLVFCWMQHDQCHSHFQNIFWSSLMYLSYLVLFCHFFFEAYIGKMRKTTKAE
OBSERVATION TYPE: pIC50
Quick note: pIC50 values are minus log10 of concentrations in mol/L.

O=C(Nc1cncc(C(F)(F)F)c1)N1C2CCC1CC(S(=O)(=O)c1ccccc1)C2 (stereo not drawn) [Example 33]; 6.99
O=C(Nc1ccc(C(F)(F)F)cc1)N1C2CCC1CC(S(=O)(=O)c1ncccn1)C2 (stereo not drawn) [Example 12]; 7.00

The record that follows has no pIC50 shown yet.
Report pIC50 for O=C(Nc1ccc(C(F)(F)F)cc1)N1C2CCC1CC(S(=O)(=O)c1ccccc1)C2 (stereo not drawn) [Example 1] please.
7.01
